System: DU-145 prostate
Experiment: NCI-60 one-dose screen, 48 h
Settings: 10 µM unless noted
Protocol: Cells are grown in 96 well plates and exposed to the test compound for 48 hours. Compounds are tested at a single concentration, which is 10^-5 M for most compounds. The reported endpoint is percent growth (GI% or GIPRCNT), where numbers from 0 - 100% represent growth inhibition, and numbers from -100% - 0 represent cell death. For example, a value of 40 represents 60% growth inhibition. A value of 0 means no net growth occurred over the course of the experiment. […]
This is part of a sample that, as a whole, favours compounds with a hit. Of some 83,000 tested, about 20% had one in any assay. Calls of active or inactive are those of the source. Rule for the calls: active = growth percent below 10; inactive = the rest.
Possible outcomes: active, inactive

{"compound": "O=C(Nc1nc2c(C(F)(F)F)cccc2s1)c1cc(Cl)ccc1O", "assigned.label": "inactive"}
{"compound": "Clc1ccc2c(c1)C(Br)c1cc(Cl)cc(Cl)c1-2 (stereo unspecified)", "assigned.label": "inactive"}
{"compound": "N=C1c2nc3n(c2C(=O)c2nc4n(c21)CCCCC4)CCCCC3", "assigned.label": "inactive"}
{"compound": "COC(=O)c1cc2oc(/C=N\\NC(=O)c3cc4oc(C)c(C)c4[nH]3)cc2[nH]1", "assigned.label": "inactive"}
{"compound": "COc1cccc(/C=C2\\Cc3ccccc3C2=O)c1", "assigned.label": "inactive"}
{"compound": "Cc1ccc(/C=C(/C#N)n2nnc3ncccc32)cc1", "assigned.label": "active"}
{"compound": "CCCCCCCC[Si](OCC)(OCC)OCC", "assigned.label": "inactive"}
{"compound": "C1CCC(C(CC2CCCCN2)C2CCCCC2)CC1 (stereo unspecified)", "assigned.label": "inactive"}
{"compound": "CCOC(=O)c1cnc2c(C)cc(C)cc2c1NCCCN(C)C", "assigned.label": "inactive"}
{"compound": "COc1ccc(C2=NN(C=O)C(c3cccc(Nc4ccnc5cc(Cl)ccc45)c3)C2)cc1 (stereo unspecified)", "assigned.label": "inactive"}
{"compound": "COc1cc(/C=C2\\SC(N3CCCCC3)=NC2=O)ccc1OCCCCCCOc1ccc(/C=C2\\SC(N3CCCCC3)=NC2=O)cc1OC", "assigned.label": "active"}

---

tested on: OVCAR-8 ovarian; assay: NCI-60 one-dose screen, 48 h (100 = growth as untreated, 0 = no growth, -100 = all killed); details: 10 µM unless noted
About 83,000 compounds went through this panel and 20% of them were active in at least one assay; those are over-represented in the sample as a whole.
recorded.metric: growth (%)

{"smiles.representation": "COc1ccc2c(c1)C(=Nc1cc(OC)c(OC)c(OC)c1)C(=O)N2", "recorded.metric": "growth", "value": 105}
{"smiles.representation": "C=CCNC(=O)/C(=C/c1cccc([N+](=O)[O-])c1)NC(=O)c1ccccc1", "recorded.metric": "growth", "value": 98.7}
{"smiles.representation": "NC(=O)c1cc(Cl)ccc1NC(=O)c1ccccc1-c1ccccc1", "recorded.metric": "growth", "value": 32}
{"smiles.representation": "COc1ccc2c(c1)CC/C(=C\\c1ccc(OCC(=O)Nc3nc4ccccc4s3)cc1)C2=O", "recorded.metric": "growth", "value": 98.3}
{"smiles.representation": "CCCCc1n(Cc2ccc3ccccc3c2)cc[n+]1Cc1ccc2ccccc2c1", "recorded.metric": "growth", "value": -35.8}

---

system: CCRF-CEM leukemia; assay: NCI-60 one-dose screen, 48 h; conditions: 10 µM unless noted
About 83,000 compounds went through this panel and 20% of them were active in at least one assay; those are over-represented in the sample as a whole. Active and inactive are the calls of the source. How the source made its calls: active means growth percent below 10; inactive means the rest.
Possible outcomes: 1 = active, -1 = inactive

{"compound": "COc1cc(Cl)cc(-c2nn(-c3cccc(NC(=O)c4cc(C(F)(F)F)cc(C(F)(F)F)c4)c3)cc2-c2ccncc2)c1", "assigned.label": -1}
{"compound": "COc1cc(/C=C/c2cc(/C=C/c3ccc(O)c(OC)c3)n(C(=O)c3ccc(Cl)cc3)n2)ccc1O", "assigned.label": 1}
{"compound": "Nc1c(C(=O)Nc2cccc(Cl)c2)sc2nc3c(cc12)C(O)CCC3 (configuration not stated)", "assigned.label": -1}
{"compound": "COc1cc(C(=O)/C=C/c2cccc(Nc3ccnc4cc(Cl)ccc34)c2)cc(OC)c1OC", "assigned.label": 1}
{"compound": "O=Cc1ccccc1C(=O)O", "assigned.label": -1}
{"compound": "COc1ccc2cc(-c3nc4ccccc4[nH]3)c(=O)oc2c1", "assigned.label": -1}
{"compound": "COc1ccc2nc(-c3ccc(Cl)cc3)cc(-c3nnc(SCC(=O)Nc4ccc(C(C)=O)cc4)n3-c3ccccc3)c2c1", "assigned.label": -1}
{"compound": "CCOC(=O)/C(=C/CC/C(C)=C/CC/C(C)=C/CCc1ccoc1)CC(=O)N1CCCCC1", "assigned.label": -1}
{"compound": "CC(=O)c1ccccc1NC(=O)C(C)(c1ccccc1)c1ccccc1", "assigned.label": -1}
{"compound": "N#Cc1c(-c2ccccc2)cc(-c2ccccc2)n(CCC(=O)O)c1=O", "assigned.label": -1}
{"compound": "COc1ccc(-c2ccc(O)c(C(=O)/C=C/c3cc(OC)c(OC)c(OC)c3)c2)cc1", "assigned.label": -1}
{"compound": "O=C(Nc1nc2c(C(F)(F)F)cccc2s1)c1cc(Cl)ccc1O", "assigned.label": -1}
{"compound": "CC1Cc2ccccc2N1C(=O)c1ccc(C(=O)c2ccccc2)cc1 (configuration not stated)", "assigned.label": -1}
{"compound": "CC1CN(/N=C/c2ccc([N+](=O)[O-])o2)C(=N)O1 (configuration not stated)", "assigned.label": -1}
{"compound": "O=C1c2cccc(NCCN=Cc3ccccc3O)c2C(=O)c2c(NCCN=Cc3ccccc3O)cccc21", "assigned.label": 1}
{"compound": "C1=C(Cc2ccccc2)n2cnc3ncnc(c32)S1", "assigned.label": -1}
{"compound": "O=C1CNc2cc(Cl)ccc2N1", "assigned.label": -1}
{"compound": "Cn1ccnc1C(=O)/C=C/c1ccc(C(=O)Nc2nc3ccccc3[nH]2)cc1", "assigned.label": -1}
{"compound": "Cn1cnc([N+](=O)[O-])c1Sc1nc(N)nc2nc[nH]c12", "assigned.label": -1}
{"compound": "CCOC(=O)C1=CCC(n2cc(C)c(=O)[nH]c2=O)O1 (configuration not stated)", "assigned.label": -1}
{"compound": "N[C@H](CS)C(=O)O", "assigned.label": -1}
{"compound": "CC(=O)Nc1cc2c3c(cccc3c1)-c1ccccc1-2", "assigned.label": -1}

---

test system: OVCAR-5 ovarian; assay: NCI-60 one-dose screen, 48 h; details: 10 µM unless noted
This is part of a sample that, as a whole, favours compounds with a hit. Of some 83,000 tested, about 20% had one in any assay. Active and inactive are the calls of the source. The calls were made as follows: active = growth percent below 10; inactive = the rest.
Labels: true (1) for active, false (0) for inactive

{"compound": "N#Cc1c(-c2ccccc2)cc(-c2ccccc2)n(CCCCCCC(=O)O)c1=O", "assigned.label": "false (0)"}
{"compound": "CCC(=O)Nc1cc2c(cc1Cl)-c1ccccc1C2", "assigned.label": "false (0)"}
{"compound": "O=C(CC1Sc2ccccc2NC1=O)NNc1cccc(Cl)c1Cl (stereo unspecified)", "assigned.label": "false (0)"}
{"compound": "CCCCOP(=O)(OCCCC)C(C(=O)OCC)C(CC(=O)OCC)C(=O)OCC (stereo unspecified)", "assigned.label": "false (0)"}
{"compound": "Nc1ccc2c(c1Br)Cc1ccccc1-2", "assigned.label": "false (0)"}
{"compound": "O=C(CNC(=O)c1cccc2ccccc12)Nc1ccccc1Oc1cccc(O)c1", "assigned.label": "false (0)"}
{"compound": "CC(=O)Nc1cc(C(c2ccccc2)c2ccccc2)cc(C(c2ccccc2)c2ccccc2)c1C", "assigned.label": "false (0)"}
{"compound": "ICCC(c1ccccc1)(c1ccccc1)c1ccccc1", "assigned.label": "false (0)"}
{"compound": "CCN(CC)c1ccc(N=C2C=CC(=O)C=C2NC(C)=O)cc1", "assigned.label": "false (0)"}
{"compound": "Cc1n(Cc2ccc3ccccc3c2)c2ccccc2[n+]1Cc1ccc2ccccc2c1", "assigned.label": "true (1)"}
{"compound": "BrC1CC(Br)c2c1c1c(c3c2C(Br)CC3Br)C(Br)CC1Br (stereo unspecified)", "assigned.label": "false (0)"}
{"compound": "Cc1sc2nc(NCc3ccccc3)[nH]c(=O)c2c1C", "assigned.label": "false (0)"}
{"compound": "CC(C)C[C@H](NC(=O)/C=C/Cn1ccc2ccccc2c1=O)B(O)O", "assigned.label": "false (0)"}
{"compound": "Nc1ccc(Oc2c(F)c(F)c(Oc3ccc(N)cc3)c(F)c2F)cc1", "assigned.label": "false (0)"}
{"compound": "CC1CN(CC(O)c2ccc(Br)cc2)CCO1 (stereo unspecified)", "assigned.label": "false (0)"}
{"compound": "Cc1ccccc1NC(=O)N/C(N)=N/c1nc2ccccc2s1", "assigned.label": "false (0)"}
{"compound": "O=C(O)c1ccc2cccnc2c1O", "assigned.label": "false (0)"}
{"compound": "Cc1n(Cc2ccc3ccccc3c2)cc[n+]1Cc1ccc2ccccc2c1", "assigned.label": "false (0)"}
{"compound": "Cc1cnc2nc(-c3ccc(N(C)C)cc3)cn2c1", "assigned.label": "false (0)"}
{"compound": "CC(C)=CCNc1ncnc2c1ncn2C1OC(COP(=O)(O)O)C(O)C1O (stereo unspecified)", "assigned.label": "false (0)"}
{"compound": "COc1cnc2c(c1)C(=O)c1c-2n(CCCn2ccnc2)c(=O)c2cc(F)ccc12", "assigned.label": "true (1)"}
{"compound": "c1ccc(-c2n(Cc3ccc4ccccc4c3)cc[n+]2Cc2ccc3ccccc3c2)cc1", "assigned.label": "true (1)"}
{"compound": "COc1ccc(-n2cnc3cc(C(=O)N4CCCCC4)ccc32)cc1", "assigned.label": "false (0)"}
{"compound": "COc1cnc2c(c1)C(=O)c1c-2n(CCCN2CCNCC2)c(=O)c2cc(F)ccc12", "assigned.label": "true (1)"}
{"compound": "COc1cccc(C=Nc2cc(C(C)C)c(O)cc2C)c1O", "assigned.label": "false (0)"}
{"compound": "CC(=O)c1ccccc1NC(=O)C(C)(c1ccccc1)c1ccccc1", "assigned.label": "false (0)"}
{"compound": "COc1ccc2c(c1)c(CC(=O)[Se]C)c(C)n2C(=O)c1ccc(Cl)cc1", "assigned.label": "false (0)"}
{"compound": "CCCn1c(N)c(C(=O)CNc2ccc(I)cc2)c(=O)[nH]c1=O", "assigned.label": "false (0)"}
{"compound": "CCc1nn2c(-c3ccc(Cl)cc3C)c(-c3cc(OC)c(OC)c(OC)c3)nc2s1", "assigned.label": "false (0)"}
{"compound": "CO[C@H]1/C=C/O[C@@]2(C)Oc3c(C)c(O)c4c(O)c(c(/C=N/N5C(C)CN(Cc6ccc(C#N)cc6)CC5C)c(O)c4c3C2=O)NC(=O)/C(C)=C\\C=C\\[C@H](C)[C@H](O)[C@@H](C)[C@@H](O)[C@@H](C)[C@H](OC(C)=O)[C@@H]1C (stereo partly specified)", "assigned.label": "false (0)"}
{"compound": "Cc1cc2c(cc1C)[n+](Cc1ccc3ccccc3c1)cn2Cc1ccc2ccccc2c1", "assigned.label": "true (1)"}
{"compound": "CC(=O)Nc1ccc(C(=O)COc2cccc(/C=C3\\CCc4ccccc4C3=O)c2)cc1", "assigned.label": "false (0)"}
{"compound": "CCOc1cc(/C=C/C(=O)CC(=O)/C=C/c2ccc(OC(=O)CNCCN(CC)CC)c(OCC)c2)ccc1OC(=O)CNCCN(CC)CC", "assigned.label": "true (1)"}
{"compound": "C=CCN(/C=C/CN(CC=C)CC=C)CC=C", "assigned.label": "false (0)"}
{"compound": "C[C@]12CC[C@H](O)CC1=CC[C@@H]1[C@@H]2CC[C@]2(C)C(c3cccnc3)=CC[C@@H]12", "assigned.label": "false (0)"}
{"compound": "Cc1cc(=O)oc2cc(OCCn3c(C)nn(-c4ccc(Cl)cc4)c3=O)ccc12", "assigned.label": "false (0)"}
{"compound": "CC(C)OP(=O)(OC(C)C)c1ncc(-c2ccc(C(F)(F)F)cc2)c(NC2CCCCCC2)n1", "assigned.label": "true (1)"}
{"compound": "Cn1c(=O)c2[nH]c(=S)n(Cc3ccccc3)c2n(C)c1=O", "assigned.label": "false (0)"}
{"compound": "CC[n+]1c(/C=C/c2ccc(N3CCCC3)cc2)cccc1/C=C/c1ccc(N2CCCC2)cc1", "assigned.label": "true (1)"}
{"compound": "CC[C@H]1CN2CCc3cc(OC)c(OC)cc3C2C[C@@H]1CC1NCCc2cc(OC)c(OC)cc21 (stereo partly specified)", "assigned.label": "true (1)"}
{"compound": "Cc1ccc(C2=NNC(c3sc(Cl)nc3Cl)C2)cc1 (stereo unspecified)", "assigned.label": "false (0)"}
